Data provenance is patent US20130071936A1.

Test: pKa and effect of pH on emission
Type: physicochemical
measured-property: pKa
Number only, no unit.

Lab book: pKa of COc1ccc(/C=C/c2ccc(-c3ccc(C)cn3)nc2)cc1 noted as 4.6

====

Experiment: Absorption and fluorescence titration of the indicator with ZnCl2 in CH3CN
Assay type: binding
Conditions: indicator 3.0 μM, F/F0 at 630 nm vs [ZnCl2], fit to 1:1 binding isotherm; read-out: Dissociation constant Kd
measured-property: pKd
Conceptually, pKd converts a concentration in mol/L into minus its log10.

Lab book: pKd of COCCCNc1cc2c3c(c(NCCOc4ccc(/C=C/c5ccc(-c6ccc(COCCOCCOC)cn6)nc5)cc4)cc4c3c1C(=O)N(CCCOC)C4=O)C(=O)N(CCCOC)C2=O noted as 5.04
